assay.system: recombinant DYRK1A kinase (Homo sapiens, UniProt Q13627)
protocol.details: DYRK1A kinase assay (Ser/Thr 18 peptide Z-lyte FRET)
condition.set: DYRK1A 0.25 μg/mL, ATP 15 μM, Ser/Thr peptide 18 4 μM, one hour at room temperature, 11-point dose-response from 10 μM
recorded.metric: IC50 (nM)
The figure you give is taken to be in nM; do not add the unit.

INPUT: Entry CNc1nc(N[C@H]2CCN(C)C[C@H]2F)nn2ccc(-c3ccc4nnn(CCCF)c4n3)c12 : reported IC50 = ?
OUTPUT: 11.2

INPUT: Entry Nc1nc(N[C@H]2CCN(C3COC3)C[C@H]2F)nn2ccc(-c3ccc4ncn(CC(F)(F)F)c4n3)c12 : reported IC50 = ?
OUTPUT: 1.4

INPUT: Entry Nc1nc(N[C@@H]2CCN(C3COC3)C[C@@H]2F)nn2ccc(-c3ccc4ncn(CCF)c4n3)c12 : reported IC50 = ?
OUTPUT: 1.6

INPUT: Entry C[C@]1(O)CC[C@H](Nc2nc(N)c3c(-c4ccc5nnn(CC(F)F)c5n4)c(F)cn3n2)CC1 : reported IC50 = ?
OUTPUT: 1.4

INPUT: Entry CNc1nc(N[C@@H]2CCN(C(C)=O)CC2(F)F)nn2ccc(-c3ccc4nnn(CCCF)c4n3)c12 : reported IC50 = ?
OUTPUT: 3.5

INPUT: Entry CNc1nc(N[C@H]2CCN(C(C)=O)C[C@H]2F)nn2cc(F)c(-c3ccc4nc(C)n(CCF)c4n3)c12 : reported IC50 = ?
OUTPUT: 1.3

INPUT: Entry CNc1nc(N[C@@H]2CCN(C(=O)CO)CC2(F)F)nn2ccc(-c3ccc4nnn(CC(F)F)c4n3)c12 : reported IC50 = ?
OUTPUT: 1.2
